molecular target: Alpha-bungarotoxin (Bungarus multicinctus) (UniProt P60615); test: alpha-bungarotoxin binders on microarray, profiling panel, artefact control for SMM control protein annotation, biochemical, small-molecule microarray, Alexa647 label, 635/667 nm fluorescence (AID 1117); conditions: alpha-BTX-A647 binding fluorescence, higher = more signal
Sequence (P60615 whole entry, looked up): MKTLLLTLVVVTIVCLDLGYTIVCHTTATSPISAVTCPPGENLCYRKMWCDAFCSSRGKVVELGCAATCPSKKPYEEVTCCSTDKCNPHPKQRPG
Outcome label depends on composite z-score relative to 0.2: at/above gives 1, below gives 0.

- compound: "CCOC(=O)NN=C1C[C@@H](O)[C@@H](O)[C@@H]2[C@@H]3C(=O)N(c4ccc(F)cc4F)C(=O)[C@@H]3CC[C@@H]12"
  class-assignment: 0
- compound: "CC(CCN1CCCCc2nc(C)c(C)cc21)=NO[C@@H](C)c1cn([C@H](CO)Cc2ccccc2)nn1"
  class-assignment: 1
- compound: "COC(=O)[C@@H]1CC[C@H](C)[C@@H](c2ccc(C)cc2)N1C(=O)c1ccc(C=NO[C@@H](C)c2cn([C@H](CO)Cc3ccccc3)nn2)cc1"
  class-assignment: 1
- compound: "CCOC(=O)C1=NO[C@@]2(C=C(Br)C3(OCCCO3)[C@H]3O[C@H]32)C1"
  class-assignment: 1
- compound: "CO[C@H]1COC(=O)[C@H](C)NC(=O)[C@@H](C)COC(=O)[C@H]2CCCN2C(=O)CC=C[C@H]1C"
  class-assignment: 0
- compound: "CO[C@H]1COC(=O)CC=C[C@H](C)[C@@H](OC)COC(=O)[C@H](C)COC(=O)CC=C[C@@H]1C"
  class-assignment: 0
- compound: "COC(=O)[C@H](C)NC(=O)CCC1CC(OC(=O)NCc2ccc3c(c2)OCO3)CC2(CCCC(COC(=O)NCC(c3ccccc3)c3ccccc3)O2)O1 (stereo partly drawn)"
  class-assignment: 1
- compound: "COC(=O)CC=C[C@@H](C)[C@@H](C=NOC[C@@H](O)[C@H]1O[C@@H]2OC(C)(C)O[C@@H]2[C@H]1O)NS(=O)(=O)c1ccc(C)cc1"
  class-assignment: 0
- compound: "Cc1cc2c(nc1C)CCCN2CC(O)CN1CCCc2nc(C)c(C)cc21"
  class-assignment: 1
- compound: "O=C1[C@H]2[C@H]3[C@H](O)[C@H](O)CC(=NOC[C@@H](O)COCc4ccco4)[C@H]3CC[C@H]2C(=O)N1c1ccc(F)cc1F"
  class-assignment: 0
- compound: "COc1ccc(COC(=O)NN=C2C[C@@H](O)[C@@H](O)[C@@H]3[C@@H]4C(=O)N(c5cccc(Oc6ccccc6)c5)C(=O)[C@@H]4CC[C@@H]23)cc1"
  class-assignment: 1
- compound: "CC(=O)OC[C@H]1O[C@H](CCON=C2[C@H]3CCn4c(=O)n(-c5ccccc5)c(=O)n4[C@H]3[C@H](O)[C@@H]3O[C@H]23)C=C[C@@H]1OC(C)=O"
  class-assignment: 1
- compound: "CCOC(=O)[C@H](CC(C)C)NC(=O)CCC1CC(OC(=O)NCc2ccc3c(c2)OCO3)CC2(CCCC(COC(=O)NCC(c3ccccc3)c3ccccc3)O2)O1 (stereo partly drawn)"
  class-assignment: 1
- compound: "CCOC(=O)CCN1C(=O)[C@H]2[C@H]3[C@H](O)[C@H](O)CC(=NOCC(C)C)[C@H]3CC[C@H]2C1=O"
  class-assignment: 1
- compound: "CCOC(=O)[C@H](CC(C)C)NC(=O)CCC1CC(OC(=O)NCc2cccc3ccccc23)CC2(CCCC(COC(=O)NCc3cccc(C(F)(F)F)c3)O2)O1 (stereo partly drawn)"
  class-assignment: 0
- compound: "C#CCCCON=C1C[C@@H](O)[C@@H](O)[C@@H]2[C@@H]3C(=O)N(Cc4ccccc4)C(=O)[C@@H]3CC[C@@H]12"
  class-assignment: 0
- compound: "CCOC(=O)[C@H](Cc1ccccc1)NC(=O)CCC1CC(OC(=O)NCc2cccc3ccccc23)CC2(CCCC(COC(=O)NCCC(C)C)O2)O1 (stereo partly drawn)"
  class-assignment: 1
- compound: "CCOC(=O)C1=NO[C@]2(C=C(Br)C3(OCCCO3)[C@H]3O[C@H]32)C1"
  class-assignment: 1
- compound: "CC(C)=NOC[C@@H](C)[C@H](OCc1ccccc1)C(C)C"
  class-assignment: 1
- compound: "CCOC(=O)[C@H](CC(C)C)NC(=O)CCC1CC(OC(=O)NCCc2ccc(F)cc2)CC2(CCCC(COC(=O)NCCOc3ccccc3)O2)O1 (stereo partly drawn)"
  class-assignment: 1
- compound: "COc1cccc([C@H]2Oc3ccc(OC)cc3C(=NOC[C@@H](C)[C@H](OCc3ccccc3)C(C)C)[C@@H]2O)c1"
  class-assignment: 1
- compound: "CC(C)(C)N1C(=O)[C@H]2[C@H]3[C@H](O)[C@H](O)CC(=NOCc4ccccc4)[C@H]3CC[C@H]2C1=O"
  class-assignment: 1
- compound: "CON=CC[C@@H]1C=C[C@H](OC(C)=O)[C@@H](COC(C)=O)O1"
  class-assignment: 1
